- System: SN12C
- PROTOCOL TEXT: minimum viability across doses, drug alone, relative to DMSO (fraction); higher = less growth inhibition
- CONDITION PARAMETERS: treatment: drug alone; 5 days
READOUT: minimum viability across doses

Q) Consider the molecule shown here: CCOC(=O)C1=C(N)Oc2ccc(Br)cc2[C@H]1[C@H](C#N)C(=O)OCC What is its recorded minimum viability across doses?
A) 0.867

Q) Recorded minimum viability across doses for COc1cc(Nc2ncc(F)c(Nc3ccc4c(n3)NC(=O)C(C)(C)O4)n2)cc(OC)c1OC [R406(free base)] , please?
A) 0.359

Q) What value of measured minimum viability across doses is listed for Cc1c(NC(=O)OC[C@@H]2COCCN2)cn2ncnc(Nc3ccc4c(cnn4Cc4cccc(F)c4)c3)c12.Cl ?
A) 0.677

Continuing:
Q) Which minimum viability across doses is reported for this molecule? O=C(O)c1ccc(Nc2ncc3c(n2)-c2ccc(Cl)cc2C(c2c(F)cccc2F)=NC3)cc1
A) 0.427

Q) Using the record for CC(=O)Nc1ccc(NC(=S)NC(=O)c2ccc(C(C)(C)C)cc2)cc1 , report its minimum viability across doses.
A) 0.762

Q) Report minimum viability across doses for COC(=O)Nc1ccc(-c2nc(N3CCOCC3)c3cnn(C4CCN(Cc5cccnc5)CC4)c3n2)cc1 please.
A) 0.141

Q) Value lookup for minimum viability across doses; key = O=C1CCC(N2C(=O)c3ccccc3C2=O)C(=O)N1 (configuration not stated) [Thalidomide]
A) 0.88

Q) Sample CCn1c(N)c(C(=O)NC)c(=O)c2ccc(C#C[C@@](C)(O)COC)nc21 — what was its minimum viability across doses?
A) 0.849

====

- Tested on: TK-10
- PROTOCOL TEXT: AUC of dose-response viability curve, drug alone (arbitrary (AUC of normalised viability)); higher = less growth inhibition
- CONDITION PARAMETERS: treatment: drug alone; 5 days
The following molecules are listed with their measured AUC of dose-response viability curve values.
// no unit, no text: just the number

# example entries with known answers
Q) Which AUC of dose-response viability curve reading was recorded for the molecule CC(C)(C)c1cnc(CSc2cnc(NC(=O)C3CCNCC3)s2)o1 ?
A) 2.22

Q) Which AUC of dose-response viability curve value is on record for CS(=O)(=O)O.O=C(Nc1cccc(Cl)c1)Nc1ncc(CCNc2ncnc3ccsc23)s1 [SNS-314] ?
A) 2.73

Q) What value of AUC of dose-response viability curve has been reported for the following molecule? CN1CCN(C2CCN(C(=O)Nc3cc(Oc4ccc(NC(=O)C5(C(=O)Nc6ccc(F)cc6)CC5)c(F)c4)ccn3)CC2)CC1 [Golvatinib (E7050)]
A) 2.56

***
Q) Entry under review: Cc1cc2c(F)c(Oc3ncnn4cc(OC[C@@H](C)O)c(C)c34)ccc2[nH]1 . Reported AUC of dose-response viability curve?
A) 3.23

Q) AUC of dose-response viability curve lookup needed for Cl.N=C(N)NC(=N)NCCc1ccccc1 [Phenformin hydrochloride] , thanks.
A) 2.95

Q) Item under review: CCS(=O)(=O)N1CC(CC#N)(n2cc(-c3ncnc4[nH]ccc34)cn2)C1 . Reported AUC of dose-response viability curve?
A) 3.09

Q) # lookup: AUC of dose-response viability curve of CCn1c(-c2nonc2N)nc2c(C#CC(C)(C)O)ncc(OC[C@H]3CCCNC3)c21
A) 2.59

Q) Which value of AUC of dose-response viability curve has been reported for Cc1nc(Nc2ncc(C(=O)Nc3c(C)cccc3Cl)s2)cc(N2CCN(CCO)CC2)n1 in the records?
A) 1.11

====

- Tested on: SN12C
- PROTOCOL TEXT: AUC of dose-response viability curve, drug alone (arbitrary (AUC of normalised viability)); higher = less growth inhibition
- CONDITION PARAMETERS: treatment: drug alone; 5 days
READOUT: AUC of dose-response viability curve
Please respond with just the number, no unit label.

Q) Provide the documented AUC of dose-response viability curve with SN12C as the system for C=CCc1cccc(/C=N/NC(=O)CN2CCN(Cc3ccccc3)CC2)c1O
A) 3.01

Q) Look up AUC of dose-response viability curve with SN12C for this compound: O=c1sn(-c2cccc3ccccc23)c(=O)n1Cc1ccccc1
A) 3.28

Q) Form field - read-out: AUC of dose-response viability curve; system: SN12C; submitted item: CCOc1ccn(-c2ccc(F)cc2)c(=O)c1C(=O)Nc1ccc(Oc2ccnc(N)c2Cl)c(F)c1
A) 3.14

Q) Please provide the recorded AUC of dose-response viability curve for CN(C)CCOc1ccc(-c2nc(-c3ccncc3)c(-c3ccc4c(c3)CC/C4=N/O)[nH]2)cc1 , tested on SN12C.
A) 3.3

Q) Provide the documented AUC of dose-response viability curve with SN12C as the system for OCc1ccc(-c2ccc(-c3ccc(CO)s3)o2)s1
A) 2.29

Further cases:
Q) Reported AUC of dose-response viability curve for SN12C, given COC(=O)Nc1ccc(-c2nc(N3CCOCC3)c3cnn(C4CCN(C(=O)OC)CC4)c3n2)cc1 ?
A) 2.54

====

- System: ACHN
- PROTOCOL TEXT: GI50, drug alone; higher = less potent
- CONDITION PARAMETERS: treatment: drug alone; 5 days
READOUT: GI50, drug alone (nM)
Your answer should be a plain number; it is taken to be in nM.

Look over these answered cases.
Q) // query GI50, drug alone value for entry CC(C)(C)Cn1c(N)nc2ccc(-c3[nH]c(C(C)(C)C)nc3-c3ccc(F)cc3)nc21.CS(=O)(=O)O.CS(=O)(=O)O
A) 2190

Q) Need GI50, drug alone, item O=C(Cc1ccc(-c2ccc(OCCN3CCOCC3)cc2)cn1)NCc1ccccc1
A) 75.5

Q) Return reported GI50, drug alone; argument: COc1ccc(-c2ccc3c(N4CCOC[C@@H]4C)nc(N4CCOC[C@@H]4C)nc3n2)cc1CO
A) 41.5

Now for another entry.
Q) Return reported GI50, drug alone; argument: Nc1ncnc2c1c(-c1cnc3[nH]ccc3c1)nn2C1CCCC1
A) 455

====

This listing pairs compounds with measured GI50 of drug.
- System: TK-10
- PROTOCOL TEXT: GI50 of drug in presence of dasatinib; higher = less potent
- CONDITION PARAMETERS: treatment: drug + dasatinib (fixed dose, not stated); 5 days

Example compounds with recorded GI50 of drug:
Q) # get_value(readout='GI50 of drug', item= Cc1ccc(-n2nc(C(C)(C)C)cc2NC(=O)Nc2ccc(OCCN3CCOCC3)c3ccccc23)cc1 [BIRB 796 (Doramapimod)] + Cc1nc(Nc2ncc(C(=O)Nc3c(C)cccc3Cl)s2)cc(N2CCN(CCO)CC2)n1 )
A) > 10 µM

Q) Could you tell me which GI50 of drug is on file for O=C1NC(=O)/C(=C/c2ccc3nccnc3c2)S1 + Cc1nc(Nc2ncc(C(=O)Nc3c(C)cccc3Cl)s2)cc(N2CCN(CCO)CC2)n1 ?
A) > 10 µM

***
Q) Would you kindly share the measured GI50 of drug for Cc1[nH]c(/C=C2\C(=O)Nc3ccccc32)c(C)c1CCC(=O)O [TSU-68] + Cc1nc(Nc2ncc(C(=O)Nc3c(C)cccc3Cl)s2)cc(N2CCN(CCO)CC2)n1 ?
A) > 10 µM

====

- System: A498
- PROTOCOL TEXT: AUC of dose-response viability curve, drug alone (arbitrary (AUC of normalised viability)); higher = less growth inhibition
- CONDITION PARAMETERS: treatment: drug alone; 5 days
Quick rule for you: AUC of dose-response viability curve under 4 gets TRUE, anything else gets FALSE.

Q) Strictly below 4 in AUC of dose-response viability curve? Cc1cc(Nc2cc(N3CCN(C)CC3)nc(/C=C/c3ccccc3)n2)n[nH]1.O=C(O)[C@H](O)[C@@H](O)C(=O)O [ENMD-2076]
A) TRUE

Further cases:
Q) Does this compound meet the criterion AUC of dose-response viability curve < 4? CCS(=O)(=O)N1CC(CC#N)(n2cc(-c3ncnc4[nH]ccc34)cn2)C1
A) FALSE

Q) Is AUC of dose-response viability curve strictly under 4 for the entry CN(C)C1CCN(C(=O)c2ccc(NC(=O)Nc3ccc(-c4nc(N5CCOCC5)nc(N5CCOCC5)n4)cc3)cc2)CC1 ?
A) TRUE

Q) Lab note: confirm whether the reported AUC of dose-response viability curve for this compound is below 4, equality not counting. compound: COc1cc2nccc(Oc3ccc(NC(=O)Nc4cc(C)on4)c(Cl)c3)c2cc1OC [Tivozanib (AV-951)]
A) FALSE

Q) Answer whether the compound Nc1ccc(C(=O)Nc2cccc(-c3nc(N4CCOCC4)c4oc5ncccc5c4n3)c2)cn1 has AUC of dose-response viability curve strictly less than 4
A) FALSE

====

Reported values of AUC of dose-response viability curve for individual entries
- Tested on: 786-O
- PROTOCOL TEXT: AUC of dose-response viability curve, drug alone (arbitrary (AUC of normalised viability)); higher = less growth inhibition
- CONDITION PARAMETERS: treatment: drug alone; 5 days
# answer = number (no unit)

Example entries begin here.
Q) For the compound shown here, COc1ccc(-c2ccc3ncc4c(c3c2)n(-c2ccc(N3CCNCC3)c(C(F)(F)F)c2)c(=O)n4C)cn1.O=C(O)/C=C\C(=O)O , give the reported AUC of dose-response viability curve.
A) 0.728

Q) // AUC of dose-response viability curve lookup, key: Cc1c(CN2CCN(C(=O)[C@H](C)O)CC2)sc2c(N3CCOCC3)nc(-c3cnc(N)nc3)nc12 [GDC-0980 (RG7422)]
A) 2.23

Q) Data request, read-out AUC of dose-response viability curve, for CC[C@H](CO)Nc1nc(NCc2ccccc2)c2ncn(C(C)C)c2n1 [Roscovitine (Seliciclib, CYC202)]
A) 2.76

Q) Reported AUC of dose-response viability curve, compound COc1cc2ncnc(Nc3cccc(Br)c3)c2cc1OC.Cl : ____
A) 2.81

Q) Form field: reported AUC of dose-response viability curve of Cn1cc(C2=C(c3cn(C4CCN(Cc5ccccn5)CC4)c4ccccc34)C(=O)NC2=O)c2ccccc21
A) 3.23

Others:
Q) Give its AUC of dose-response viability curve value. Item: O=C1c2ccccc2-c2n[nH]c3cccc1c23
A) 2.81

Q) AUC of dose-response viability curve lookup needed for Cc1[nH]c(/C=C2\C(=O)Nc3ccc(S(=O)(=O)Cc4c(Cl)cccc4Cl)cc32)c(C)c1C(=O)N1CCC[C@@H]1CN1CCCC1 , thanks.
A) 2.86

Q) Which AUC of dose-response viability curve value belongs to CC(C)(C)c1cc(/C=C(\C#N)C(N)=S)cc(C(C)(C)C)c1O ?
A) 1.6
